All figures here come from patent US10080365B2.

Reported Disease level (%) by item:
# Tested on: Septoria tritici isolates containing the G143A in the cytochrome b gene
# PROCEDURE SUMMARY: Glass house Trial 3: control of leaf blotch on wheat caused by two Septoria tritici isolates containing G143A
# Type: in vivo
# CONDITION NOTES: Resistant Septoria tritici isolate 1 (G143A mutation), 50 ppm, % diseased leaf area after about 28 days
MEASUREMENT LABEL: Disease level (%)

>>> print(df.to_string())
                                   compound                                 tested_on  unit_of_measure  endpoint_value
0  COC(=O)N(OC)c1ccccc1COc1ccn(-c2ccc(Cl)cc2)n1 [Pyraclostrobin, reference compound]  Septoria tritici isolates containing the G143A in the cytochrome b gene                %             100
1  CNC(=O)C(=NOC)C(C)=CCOc1ccn(-c2ccc(F)cc2F)n1  Septoria tritici isolates containing the G143A in the cytochrome b gene                %              30
2  CNC(=O)C(=NOC)C(C)=CCOc1ccn(-c2ccc(F)cc2Cl)n1  Septoria tritici isolates containing the G143A in the cytochrome b gene                %              70
3  CNC(=O)C(=N/OC)/C(C)=C\COc1ccn(-c2ccc(Cl)cc2)n1  Septoria tritici isolates containing the G143A in the cytochrome b gene                %               3
4  CON=C(C(=O)OC)c1ccccc1CON=C(C)c1cccc(C(F)(F)F)c1 [Trifloxystrobin, reference compound]  Septoria tritici isolates containing the G143A in the cytochrome b gene                %              90
5  CO/C=C(C(=O)OC)\C(C)=C/COc1ccn(-c2ccc(Cl)cc2)n1  Septoria tritici isolates containing the G143A in the cytochrome b gene                %              20
6  Cn1nnn(-c2ccccc2COc2ccn(-c3ccc(Cl)cc3)n2)c1=O  Septoria tritici isolates containing the G143A in the cytochrome b gene                %              10
